system: Streptococcus pneumoniae; assay: Antibacterial activity against Streptococcus pneumoniae 31002 by CLSI agar microdilution method; type: functional
ENDPOINT_NAME: MIC (µg/mL)
Give just the numeric value; µg/mL need not be written.

CN[C@H](CC(C)C)C(=O)N[C@H]1C(=O)N[C@@H](CC(N)=O)C(=O)N[C@H]2C(=O)N[C@H]3C(=O)N[C@H](C(=O)N[C@@H](C(=O)O)c4cc(O)cc(O)c4-c4cc3ccc4O)[C@H](O[C@H]3C[C@](C)(N)[C@H](O)[C@H](C)O3)c3ccc(c(Cl)c3)Oc3cc2cc(c3O[C@@H]2O[C@H](CO)[C@@H](O)[C@H](O)[C@H]2O[C@H]2C[C@](C)(NCc3cccs3)[C@H](O)[C@H](C)O2)Oc2ccc(cc2Cl)[C@H]1O 6.25

Now turn to the next molecule.
**Query** Provide one value: measured MIC of CN[C@H](CC(C)C)C(=O)N[C@H]1C(=O)N[C@@H](CC(N)=O)C(=O)N[C@H]2C(=O)N[C@H]3C(=O)N[C@H](C(=O)N[C@@H](C(=O)O)c4cc(O)cc(O)c4-c4cc3ccc4O)[C@H](O[C@H]3C[C@](C)(N)[C@H](O)[C@H](C)O3)c3ccc(c(Cl)c3)Oc3cc2cc(c3O[C@@H]2O[C@H](CO)[C@@H](O)[C@H](O)[C@H]2O[C@H]2C[C@](C)(NCc3ccc(C(C)C)cc3)[C@H](O)[C@H](C)O2)Oc2ccc(cc2Cl)[C@H]1O
**Result** 0.78

---

system: Streptococcus; assay: Antibacterial activity against Streptococcus gamma 32206 by CLSI agar microdilution method; type: functional
Attribute: MIC

Worked examples follow.
CN[C@H](CC(C)C)C(=O)N[C@H]1C(=O)N[C@@H](CC(N)=O)C(=O)N[C@H]2C(=O)N[C@H]3C(=O)N[C@H](C(=O)N[C@@H](C(=O)O)c4cc(O)cc(O)c4-c4cc3ccc4O)[C@H](O[C@H]3C[C@](C)(N)[C@H](O)[C@H](C)O3)c3ccc(c(Cl)c3)Oc3cc2cc(c3O[C@@H]2O[C@H](CO)[C@@H](O)[C@H](O)[C@H]2O[C@H]2C[C@](C)(NCc3cccc(Br)c3)[C@H](O)[C@H](C)O2)Oc2ccc(cc2Cl)[C@H]1O 3.13 µg/mL
CN[C@H](CC(C)C)C(=O)N[C@H]1C(=O)N[C@@H](CC(N)=O)C(=O)N[C@H]2C(=O)N[C@H]3C(=O)N[C@H](C(=O)N[C@@H](C(=O)O)c4cc(O)cc(O)c4-c4cc3ccc4O)[C@H](O[C@H]3C[C@](C)(N)[C@H](O)[C@H](C)O3)c3ccc(c(Cl)c3)Oc3cc2cc(c3O[C@@H]2O[C@H](CO)[C@@H](O)[C@H](O)[C@H]2O[C@H]2C[C@](C)(NCc3cccc(Cl)c3)[C@H](O)[C@H](C)O2)Oc2ccc(cc2Cl)[C@H]1O 0.78 µg/mL

**Query** Provide one value: measured MIC of CCCCCCCCOc1ccc(CN[C@@]2(C)C[C@H](O[C@H]3[C@H](Oc4c5cc6cc4Oc4ccc(cc4Cl)[C@@H](O[C@H]4C[C@](C)(N)[C@H](O)[C@H](C)O4)[C@@H]4NC(=O)[C@H](NC(=O)[C@@H]6NC(=O)[C@H](CC(N)=O)NC(=O)[C@H](NC(=O)[C@@H](CC(C)C)NC)[C@H](O)c6ccc(c(Cl)c6)O5)c5ccc(O)c(c5)-c5c(O)cc(O)cc5[C@H](C(=O)O)NC4=O)O[C@H](CO)[C@@H](O)[C@@H]3O)O[C@@H](C)[C@H]2O)cc1
**Result** 6.25 µg/mL

**Query** Provide one value: measured MIC of CCCCCCCCCCN[C@@]1(C)C[C@H](O[C@H]2[C@H](Oc3c4cc5cc3Oc3ccc(cc3Cl)[C@@H](O[C@H]3C[C@](C)(N)[C@H](O)[C@H](C)O3)[C@@H]3NC(=O)[C@H](NC(=O)[C@@H]5NC(=O)[C@H](CC(N)=O)NC(=O)[C@H](NC(=O)[C@@H](CC(C)C)NC)[C@H](O)c5ccc(c(Cl)c5)O4)c4ccc(O)c(c4)-c4c(O)cc(O)cc4[C@H](C(=O)O)NC3=O)O[C@H](CO)[C@@H](O)[C@@H]2O)O[C@@H](C)[C@H]1O
**Result** 6.25 µg/mL

**Query** Provide one value: measured MIC of CN[C@H](CC(C)C)C(=O)N[C@H]1C(=O)N[C@@H](CC(N)=O)C(=O)N[C@H]2C(=O)N[C@H]3C(=O)N[C@H](C(=O)N[C@@H](C(=O)O)c4cc(O)cc(O)c4-c4cc3ccc4O)[C@H](O[C@H]3C[C@](C)(N)[C@H](O)[C@H](C)O3)c3ccc(c(Cl)c3)Oc3cc2cc(c3O[C@@H]2O[C@H](CO)[C@@H](O)[C@H](O)[C@H]2O[C@H]2C[C@](C)(NCc3ccc(Cl)c(Cl)c3)[C@H](O)[C@H](C)O2)Oc2ccc(cc2Cl)[C@H]1O
**Result** 0.78 µg/mL

**Query** Provide one value: measured MIC of CN[C@H](CC(C)C)C(=O)N[C@H]1C(=O)N[C@@H](CC(N)=O)C(=O)N[C@H]2C(=O)N[C@H]3C(=O)N[C@H](C(=O)N[C@@H](C(=O)O)c4cc(O)cc(O)c4-c4cc3ccc4O)[C@H](O[C@H]3C[C@](C)(N)[C@H](O)[C@H](C)O3)c3ccc(c(Cl)c3)Oc3cc2cc(c3O[C@@H]2O[C@H](CO)[C@@H](O)[C@H](O)[C@H]2O[C@H]2C[C@](C)(NCc3ccc(Oc4ccc(OC)cc4)cc3)[C@H](O)[C@H](C)O2)Oc2ccc(cc2Cl)[C@H]1O
**Result** 1.56 µg/mL

**Query** Provide one value: measured MIC of CN[C@H](CC(C)C)C(=O)N[C@H]1C(=O)N[C@@H](CC(N)=O)C(=O)N[C@H]2C(=O)N[C@H]3C(=O)N[C@H](C(=O)N[C@@H](C(=O)O)c4cc(O)cc(O)c4-c4cc3ccc4O)[C@H](O[C@H]3C[C@](C)(N)[C@H](O)[C@H](C)O3)c3ccc(c(Cl)c3)Oc3cc2cc(c3O[C@@H]2O[C@H](CO)[C@@H](O)[C@H](O)[C@H]2O[C@H]2C[C@](C)(NCc3ccc(Oc4cccc(OC)c4)cc3)[C@H](O)[C@H](C)O2)Oc2ccc(cc2Cl)[C@H]1O
**Result** 0.78 µg/mL

**Query** Provide one value: measured MIC of CN[C@H](CC(C)C)C(=O)N[C@H]1C(=O)N[C@@H](CC(N)=O)C(=O)N[C@H]2C(=O)N[C@H]3C(=O)N[C@H](C(=O)N[C@@H](C(=O)O)c4cc(O)cc(O)c4-c4cc3ccc4O)[C@H](O[C@H]3C[C@](C)(N)[C@H](O)[C@H](C)O3)c3ccc(c(Cl)c3)Oc3cc2cc(c3O[C@@H]2O[C@H](CO)[C@@H](O)[C@H](O)[C@H]2O[C@H]2C[C@](C)(NCc3ccc(Cl)cc3Cl)[C@H](O)[C@H](C)O2)Oc2ccc(cc2Cl)[C@H]1O
**Result** 1.56 µg/mL

**Query** Provide one value: measured MIC of CN[C@H](CC(C)C)C(=O)N[C@H]1C(=O)N[C@@H](CC(N)=O)C(=O)N[C@H]2C(=O)N[C@H]3C(=O)N[C@H](C(=O)N[C@@H](C(=O)O)c4cc(O)cc(O)c4-c4cc3ccc4O)[C@H](O[C@H]3C[C@](C)(N)[C@H](O)[C@H](C)O3)c3ccc(c(Cl)c3)Oc3cc2cc(c3O[C@@H]2O[C@H](CO)[C@@H](O)[C@H](O)[C@H]2O[C@H]2C[C@](C)(NC/C=C/c3ccccc3)[C@H](O)[C@H](C)O2)Oc2ccc(cc2Cl)[C@H]1O
**Result** 1.56 µg/mL
